biological target: COVID-19 (nCoV-2019, SARS-CoV2) Mpro (Severe acute respiratory syndrome coronavirus 2, UniProt P0DTD1); test: COVID-19 (nCoV-2019, SARS-CoV2) Mpro enzymatic assay; type: biochemical; conditions: 25 nM Mpro, 25 μM substrate; read-out: COVID-19 Mpro IC50
pIC50: −log10 of the molar value.
propertyName: pIC50

{"compound": "C[C@@H]1OCCN(C#N)[C@H]1C(=O)N(c1ccc(S(F)(F)(F)(F)F)cc1)C(C(=O)NC1CCOCC1)c1cncc(F)c1 (stereo partly drawn) [Compound 1419]", "propertyName": "pIC50", "result": "> 5.70"}
{"compound": "CC(C)(C)c1ccc(N(C(=O)[C@H]2C[C@@H](O)CN2C#N)C(C(=O)NCCN2CCOCC2)c2cccnc2)cc1 (single isomer, unassigned) [587 Isomer 2]", "propertyName": "pIC50", "result": "5.00 to 5.70"}
{"compound": "CC(C)(C)c1ccc(N(C(=O)[C@H]2C[C@@H](O)CN2C#N)C(C(=O)NCc2cccnc2)c2cccnc2)cc1 (single isomer, unassigned) [643 Isomer 2]", "propertyName": "pIC50", "result": "5.00 to 5.70"}
{"compound": "CO[C@@H]1C[C@H](C(=O)N(c2ccc(S(F)(F)(F)(F)F)cc2)C(C(=O)NC(C)C2CCCCN2)c2cccnc2)N(C#N)C1 (stereo partly drawn) [Compound 1123]", "propertyName": "pIC50", "result": "> 5.70"}
{"compound": "COc1ccc(NC(=O)C(c2cccnc2)N(C(=O)[C@H]2CCCN2C#N)c2ccc(C(C)(C)C)cc2)cn1 (single isomer, unassigned) [Compound 407 Isomer 2]", "propertyName": "pIC50", "result": "< 4.52"}
{"compound": "CC(C)(C)c1ccc(N(C(=O)[C@@H]2CCCN2)C(C(=O)NC2CCCCC2)c2cccnc2)cc1 (single isomer, unassigned) [Compound 131c]", "propertyName": "pIC50", "result": "< 4.52"}

---

biological target: 229E Mpro (Human coronavirus 229E, UniProt P0C6X1); assay: 229E Mpro enzymatic assay (standard methods, SARS-CoV2 Mpro assay given as exemplary); type: biochemical, human coronavirus (HCov) 229E; settings: 229E Mpro EC50
Sequence (P0C6X1 2966-3267): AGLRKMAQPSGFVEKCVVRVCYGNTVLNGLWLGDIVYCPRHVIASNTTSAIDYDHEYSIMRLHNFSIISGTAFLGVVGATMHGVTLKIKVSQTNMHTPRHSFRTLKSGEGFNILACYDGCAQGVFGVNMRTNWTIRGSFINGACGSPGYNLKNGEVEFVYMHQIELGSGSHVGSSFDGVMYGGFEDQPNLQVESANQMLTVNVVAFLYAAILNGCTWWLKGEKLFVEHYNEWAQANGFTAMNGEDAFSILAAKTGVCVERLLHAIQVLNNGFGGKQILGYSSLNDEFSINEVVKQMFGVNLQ
pEC50: −log10 of the molar value.

{"compound": "N#CN1C[C@H]2C[C@H]2[C@@H]1C(=O)N(c1ccc(S(F)(F)(F)(F)F)cc1)C(C(=O)NC1CCC(F)(F)CC1)c1cncc(F)c1 (single isomer, unassigned) [Compound 1095b Isomer 1]", "pEC50": "> 5.70"}
{"compound": "CC(C)(C)c1ccc(N(C(=O)C2CN(C#N)C2)C(C(=O)NC2CCCCC2)c2cccnc2)cc1 (stereo not shown)", "pEC50": "4.52 to 5.00"}
{"compound": "CC(C)(C)c1ccc(N(C(=O)[C@H]2C[C@@H](O)CN2C#N)C(C(=O)NC2CCCCC2)c2cccnc2)cc1 (single isomer, unassigned)", "pEC50": "> 5.70"}
{"compound": "CC(C)(C)c1ccc(N(C(=O)[C@H]2C[C@@H](O)CN2C#N)C(C(=O)NC2CCCCC2)c2cccnc2)c(Cl)c1 (stereo partly shown)", "pEC50": "5.00 to 5.70"}
{"compound": "CC(C)(C)c1ccc(N(C(=O)[C@H]2CCCN2C#N)C(C(=O)NCCN2CCOCC2)c2cccnc2)cc1 (single isomer, unassigned) [391 Isomer 1]", "pEC50": "> 5.70"}
{"compound": "C[C@H](NC(=O)C(c1cccnc1)N(C(=O)c1ccco1)c1ccc(-c2ccccc2)cc1)c1ccccc1 (single isomer, unassigned) [1353 Isomer 2]", "pEC50": "< 4.52"}
{"compound": "CC(C)(C)c1ccc(N(C(=O)[C@H]2NCC2(C)C)[C@@H](C(=O)NC2CCCCC2)c2cccnc2)cc1 [Compound 136c]", "pEC50": "< 4.52"}
{"compound": "CC(C)(C)c1ccc(N(C(=O)[C@H]2C[C@@H](O)CN2C#N)C(C(=O)NCc2cccnc2)c2cccnc2)cc1 (single isomer, unassigned) [643 Isomer 1]", "pEC50": "> 5.70"}
{"compound": "CC(C)(C)c1ccc(N(C(=O)[C@H]2CCCN2C#N)C(C(=O)NCc2ccncc2)c2cccnc2)cc1 (single isomer, unassigned) [Compound 439 Isomer 1]", "pEC50": "> 5.70"}
{"compound": "CO[C@@H]1C[C@H](C(=O)N(c2ccc(S(F)(F)(F)(F)F)cc2)C(C(=O)NC2CCC(F)(F)CC2)c2cncs2)N(C#N)C1 (stereo partly shown)", "pEC50": "> 5.70"}
{"compound": "N#CN1C[C@H](O)C[C@@H]1C(=O)N(c1ccc2c(c1)NCCC2)C(C(=O)NC1CCCCC1)c1cccnc1 (single isomer, unassigned) [Compound 755 Isomer 1]", "pEC50": "> 5.70"}
{"compound": "N#CN1CC(=O)NCC1C(=O)N(c1ccc(S(F)(F)(F)(F)F)cc1)C(C(=O)NC1CCC(F)(F)CC1)c1cncc(F)c1 (single isomer, unassigned) [Compound 1160 Isomer 4]", "pEC50": "> 5.70"}
{"compound": "CN1CC(C(=O)N(c2ccc(S(F)(F)(F)(F)F)cc2)C(C(=O)NC2CCC(F)(F)CC2)c2cncc(F)c2)N(C#N)CC1=O (single isomer, unassigned) [Compound 1161 Isomer 1]", "pEC50": "> 5.70"}
{"compound": "N#CN1C[C@@H](OCc2ccccc2)C[C@@H]1C(=O)N(c1ccc(S(F)(F)(F)(F)F)cc1)C(C(=O)NC1CCC(F)(F)CC1)c1cncc(F)c1 (single isomer, unassigned) [1280 Isomer 1]", "pEC50": "> 5.70"}
{"compound": "CN(C(=O)C(c1cccnc1)N(C(=O)[C@H]1CCCN1C#N)c1ccc(C(C)(C)C)cc1)C1CCCCC1 (stereo partly shown)", "pEC50": "> 5.70"}
{"compound": "NC(=O)c1nc(C2CC2)ccc1N(C(=O)c1cnc[nH]1)[C@H](C(=O)NC1CCCCC1)c1cccnc1", "pEC50": "5.00 to 5.70"}
{"compound": "C[C@]1(O)CN[C@@H](C(=O)N(c2ccc(S(F)(F)(F)(F)F)cc2)C(C(=O)NC2CCC(F)(F)CC2)c2cnnc3ccccc23)C1 (stereo partly shown) [Compound 711a]", "pEC50": "> 5.70"}
{"compound": "COc1ccc(NC(=O)C(c2cccnc2)N(C(=O)[C@H]2C[C@@H](OC)CN2C#N)c2ccc(S(F)(F)(F)(F)F)cc2)cn1 (single isomer, unassigned) [1180 Isomer 1]", "pEC50": "5.00 to 5.70"}
{"compound": "CC(C)(C)c1ccc(N(C(=O)[C@H]2CCCN2C#N)C(C(=O)NC2CCCCC2)c2cccnc2)cc1 (single isomer, unassigned) [Compound 130a]", "pEC50": "> 5.70"}
{"compound": "CC(C)(C)c1ccc(N(C(=O)[C@H]2CCCN2C#N)C(C(=O)NCc2ccccn2)c2cccnc2)cc1 (stereo partly shown)", "pEC50": "> 5.70"}
{"compound": "CC(C(=O)NC1CCC(F)(F)CC1)(c1cccnc1)N(C(=O)[C@H]1[C@@H]2C[C@@H]2CN1C#N)c1ccc(S(F)(F)(F)(F)F)cc1 (single isomer, unassigned) [Compound 1251 Isomer 2]", "pEC50": "> 5.70"}
{"compound": "CC1(O)C[C@H](C(=O)N(c2ccc(C(C)(C)C)cc2)C(C(=O)NC2CCCCC2)c2cccnc2)N(C#N)C1 (single isomer, unassigned) [Compound 284 Isomer 2]", "pEC50": "> 5.70"}

---

target: COVID-19 (nCoV-2019, SARS-CoV2) Mpro (Severe acute respiratory syndrome coronavirus 2, UniProt P0DTD1); experiment: COVID-19 (nCoV-2019, SARS-CoV2) Mpro enzymatic assay; format: biochemical; conditions: 25 nM Mpro, 25 μM substrate; read-out: COVID-19 Mpro IC50
pIC50: −log10 of the molar value.
Below, each of the compounds is paired with its reported pIC50 value.
propertyName: pIC50

{"compound": "N#CN1C[C@H]2C[C@H]2[C@@H]1C(=O)N(c1ccc(S(F)(F)(F)(F)F)cc1)C(C(=O)NC1CCC(F)(F)CC1)c1cncc(F)c1 (single isomer, unassigned) [Compound 1095b Isomer 2]", "result": "> 5.70"}
{"compound": "Cc1ccnc(C)c1C(C(=O)NC1CCC(F)(F)CC1)N(C(=O)[C@H]1C[C@@](C)(O)CN1C#N)c1ccc(S(F)(F)(F)(F)F)cc1 (stereo partly drawn) [Compound 997c]", "result": "4.52 to 5.00"}
{"compound": "CO[C@H]1C[C@H](C(=O)N(c2ccc(C(C)(C)C)cc2)C(C(=O)NC2CCCCC2)c2cccnc2)N(C#N)C1 (single isomer, unassigned) [Compound 293 Isomer 2]", "result": "4.52 to 5.00"}

---

biological target: UniProtKB P0C6X1; experiment: 229E Mpro enzymatic assay (standard methods, SARS-CoV2 Mpro assay given as exemplary); format: biochemical, human coronavirus (HCov) 229E; details: 229E Mpro EC50
pEC50: −log10 of the molar value.

{"compound": "CC(C)(C)c1ccc(N(C(=O)[C@H]2C[C@H](O)CN2C#N)C(C(=O)NC2CCCCC2)c2cccnc2)cc1 (single isomer, unassigned) [Compound 255 Isomer 1]", "measuredTarget": "UniProtKB P0C6X1", "pEC50": "> 5.70"}
{"compound": "N#CN1C[C@H](O)C[C@@H]1C(=O)N(c1ccc2c(c1)NCCC2)C(C(=O)NC1CCCCC1)c1cccnc1 (single isomer, unassigned) [Compound 755 Isomer 2]", "measuredTarget": "UniProtKB P0C6X1", "pEC50": "5.00 to 5.70"}
{"compound": "CO[C@@H]1C[C@H](C(=O)N(c2ccc(C3CC3)cc2F)C(C(=O)NC2CCC(F)(F)CC2)c2cnccc2C(F)(F)F)N(C#N)C1 (single isomer, unassigned) [Compound 1309 Isomer 1]", "measuredTarget": "UniProtKB P0C6X1", "pEC50": "> 5.70"}
{"compound": "CC(C)(C)c1ccc(N(C(=O)[C@H]2C[C@@H](O)CN2C#N)C(C(=O)NCCN2CCOCC2)c2cccnc2)cc1 (single isomer, unassigned) [587 Isomer 1]", "measuredTarget": "UniProtKB P0C6X1", "pEC50": "> 5.70"}
{"compound": "CC(C)(C)c1ccc(N(C(=O)[C@H]2CCC(C)(C)N2C#N)C(C(=O)NC2CCCCC2)c2cccnc2)cc1 (single isomer, unassigned) [Compound 262 Isomer 1]", "measuredTarget": "UniProtKB P0C6X1", "pEC50": "< 4.52"}

// provenance: patent US20220380347A1
